B1: SNX8 (parent)
chain: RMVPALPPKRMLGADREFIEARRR

Variants of: B1
Assay procedure: protein stability index of a GFP-peptide fusion (GPS, HEK-293T) (PSI 1-6); higher = more stable;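 note: lentivirally expressed fusions sorted by FACS into six bins by GFP to DsRed ratio, PSI derived from sequencing read proportions per bin multiplied by bin number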
Condition notes: c terminus: a fixed tail appended
Metric name: protein stability index

INSERT INTO measurements (mutation_string, data_value) VALUES
  ('A14C', 3.52),
  ('R16Y', 2.08),
  ('A14H', 3.71),
  ('R16T', 3.56),
  ('A14M', 3.24),
  ('R1T', 2.69),
  ('P8S', 3.73),
  ('R22W', 2.73),
  ('R22H', 3.76),
  ('R1G', 3.77),
  ('M11L', 3.69),
  ('P8K', 3.87),
  ('P4N', 3.41),
  ('R22G', 4.02),
  ('R1D', 2.87),
  ('G13P', 2.83),
  ('E20M', 3.39),
  ('L6C', 3.67),
  ('M2N', 3.99),
  ('V3M', 1.29),
  ('P8G', 3.53),
  ('A14Q', 3.81),
  ('G13A', 2.81),
  ('P8A', 4.23),
  ('A14G', 3.96),
  ('M2W', 2.14),
  ('R22N', 3.77),
  ('I19K', 4.26),
  ('R16C', 3.53),
  ('L12P', 4.18),
  ('A5Y', 3.12),
  ('M2S', 4.46),
  ('V3G', 3.07),
  ('M2Y', 3.57),
  ('M11S', 4.23),
  ('F18I', 3.85),
  ('R16D', 4.07),
  ('I19W', 3.82),
  ('R1K', 3.74),
  ('M11F', 3.36),
  ('L6V', 3.97),
  ('L6K', 3.73),
  ('R10T', 4.24),
  ('R24Q', 3.52),
  ('R22Y', 3.43),
  ('E17G', 3.97);

Entry source: the supplement of paper PMC10567573
